- Target System: Tyrosinase (TYR, EC1.14.18.1) from mushroom (Agaricus bisporus)
- Construct: purchased Sigma-Aldrich
- Sequence (C7FF04 1-392): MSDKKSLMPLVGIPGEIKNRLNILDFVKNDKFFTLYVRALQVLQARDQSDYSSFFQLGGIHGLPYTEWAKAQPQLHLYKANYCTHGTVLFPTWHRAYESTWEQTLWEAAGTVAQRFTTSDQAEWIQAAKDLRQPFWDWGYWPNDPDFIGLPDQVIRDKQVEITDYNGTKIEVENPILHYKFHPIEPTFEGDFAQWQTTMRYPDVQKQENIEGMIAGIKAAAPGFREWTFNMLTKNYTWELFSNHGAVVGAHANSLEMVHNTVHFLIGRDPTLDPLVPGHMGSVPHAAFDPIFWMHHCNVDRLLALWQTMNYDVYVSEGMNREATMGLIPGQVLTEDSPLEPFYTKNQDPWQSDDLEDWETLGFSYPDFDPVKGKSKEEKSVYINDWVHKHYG
- Assay Summary: Inhibition of diphenolase activity of tyrosinase with L-DOPA as substrate (spectroscopy at 475 nm; HPLC for catechin)
- Type: biochemical
Property: IC50 (µM)

Compound	Target System	Property	Meas Value
O=C(OC1Cc2c(O)cc(O)cc2OC1c1ccc(O)c(O)c1)c1cc(O)c(O)c(O)c1 (single isomer, unassigned; (-)) [ECG, (−)-epicatechin gallate]	Tyrosinase (TYR, EC1.14.18.1) from mushroom (Agaricus bisporus)	IC50	22.6
